ASSAYED_SYSTEM: UniProtKB P35414
Sequence (P35414 whole entry): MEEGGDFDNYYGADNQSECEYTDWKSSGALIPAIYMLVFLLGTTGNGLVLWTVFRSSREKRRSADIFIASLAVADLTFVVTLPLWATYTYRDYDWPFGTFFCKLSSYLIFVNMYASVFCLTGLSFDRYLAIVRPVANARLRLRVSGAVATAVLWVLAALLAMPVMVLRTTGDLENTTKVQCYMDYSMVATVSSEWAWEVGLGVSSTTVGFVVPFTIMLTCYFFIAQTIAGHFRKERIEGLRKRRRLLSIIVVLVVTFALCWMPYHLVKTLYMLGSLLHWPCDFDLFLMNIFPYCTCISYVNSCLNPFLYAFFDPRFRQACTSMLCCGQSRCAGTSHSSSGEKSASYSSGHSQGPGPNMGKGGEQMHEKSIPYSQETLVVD
ASSAY: biochemical
CONDITION_DESCRIPTION: read-out: Activity hAPJ SPA EC50 IP
REPORTED_ENDPOINT: EC50 (nM)
Number only, in nM; omit the unit.

// map COc1cccc(-c2nnc(NS(=O)(=O)[C@@H](C)[C@H](OC)c3ncc(C)cn3)n2-c2c(O)ncnc2OC)n1 (single isomer, unassigned) [Example 740.0] to recorded EC50 (system: UniProtKB P35414) 56

Now the same for COc1cnc([C@@H](OC)[C@H](C)S(=O)(=O)Nc2nnc(-c3cncc(C)c3)n2-c2c(OC)cccc2OC)nc1 [Example 57.0] 0.55
